- System name: T1, chimeric human/cynomolgus monkey CD89-I (human/cynomolgus monkey chimera, UniProt P24071 22-287)
- T1 construct: also called ΔGln22-Lys46 human EC1-CD89; I (22-46)
- T1 chain: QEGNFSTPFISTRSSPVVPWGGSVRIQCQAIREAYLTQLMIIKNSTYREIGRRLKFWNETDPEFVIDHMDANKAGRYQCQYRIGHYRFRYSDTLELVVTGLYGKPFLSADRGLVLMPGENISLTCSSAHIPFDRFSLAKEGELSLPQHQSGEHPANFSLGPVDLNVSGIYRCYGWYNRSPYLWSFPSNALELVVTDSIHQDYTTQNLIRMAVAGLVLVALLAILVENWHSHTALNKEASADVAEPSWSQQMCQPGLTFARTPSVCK
- Assay text: FACS, transiently transfected HEK293F, 10 ug/mL; ++ strong, + intermediate, -/+ weak
Measurement label: binding result

mouse anti-human CD89-specific antibody 16D6 (antibody, mouse IgG1, V domains shown, also called 16D16) VH: QVQLQQSGAELMKPGASVKISCKATGYTFSTYWIEWVKQRPGHGLEWIGEILPGSGSANYNEKFKGKATFTADTSSNTAYMQLSSLTFEDSAVYYCAKGFGSPYYYAMDYWGQGTSVTVSS VL: EIVLTQSPALMAASPGEKVTITCSVSSSISSSNLHWYQQKSETSPKPWIYGTSKLASGVPVRFSGSGSGTSYSLTISNMEAEDAATYYCQQWSSFPLTFGGGTKLEIK
binds
